Target: EGFR-L858R/T790M/C797S (Homo sapiens, UniProt P00533, C797S/L858R/T790M)
Construct: expressed in transfected cells; host or cells: H1975-clone #25 (lentiviral over-expression, endogenous EGFR knocked out)
Sequence (P00533 25-1210 T790M/C797S/L858R): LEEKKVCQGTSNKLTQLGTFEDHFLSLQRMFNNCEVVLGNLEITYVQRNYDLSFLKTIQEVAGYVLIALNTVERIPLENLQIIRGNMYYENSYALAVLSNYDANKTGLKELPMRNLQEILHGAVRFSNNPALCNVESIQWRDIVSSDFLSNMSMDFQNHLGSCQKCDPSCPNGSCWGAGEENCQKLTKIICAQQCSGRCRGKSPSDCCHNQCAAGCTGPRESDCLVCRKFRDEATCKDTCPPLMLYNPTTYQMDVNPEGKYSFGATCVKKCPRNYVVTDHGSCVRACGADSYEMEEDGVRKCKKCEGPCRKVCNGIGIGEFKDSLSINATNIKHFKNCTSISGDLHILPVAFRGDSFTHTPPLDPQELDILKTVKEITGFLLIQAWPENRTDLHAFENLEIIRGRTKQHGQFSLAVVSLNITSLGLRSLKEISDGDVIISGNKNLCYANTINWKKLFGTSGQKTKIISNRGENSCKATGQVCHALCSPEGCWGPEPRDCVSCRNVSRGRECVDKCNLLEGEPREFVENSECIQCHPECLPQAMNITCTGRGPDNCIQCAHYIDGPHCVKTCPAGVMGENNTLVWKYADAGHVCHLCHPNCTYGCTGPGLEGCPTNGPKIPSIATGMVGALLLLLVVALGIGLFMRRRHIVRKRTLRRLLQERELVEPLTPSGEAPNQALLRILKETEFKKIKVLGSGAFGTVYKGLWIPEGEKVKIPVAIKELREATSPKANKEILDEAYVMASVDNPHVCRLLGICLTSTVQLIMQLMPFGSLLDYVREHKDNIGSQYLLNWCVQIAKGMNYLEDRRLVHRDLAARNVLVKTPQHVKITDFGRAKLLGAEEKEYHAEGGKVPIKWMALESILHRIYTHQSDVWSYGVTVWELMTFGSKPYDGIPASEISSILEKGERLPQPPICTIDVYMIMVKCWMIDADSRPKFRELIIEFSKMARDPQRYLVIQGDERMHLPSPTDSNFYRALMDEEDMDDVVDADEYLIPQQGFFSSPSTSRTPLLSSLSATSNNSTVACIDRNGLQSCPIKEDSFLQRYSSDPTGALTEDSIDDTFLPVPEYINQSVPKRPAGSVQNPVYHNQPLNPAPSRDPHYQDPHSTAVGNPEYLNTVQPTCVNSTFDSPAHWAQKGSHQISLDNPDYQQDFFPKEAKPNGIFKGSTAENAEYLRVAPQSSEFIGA
Experiment: EGFR degradation HTRF assay in H1975-clone #25 cells
Assay type: cell-based
Details: NCI-H1975, H1975-clone #25 (L858R/T790M/C797S) cells, 16 h treatment, maximum percentage of inhibition (degradation), read-out: Dmax (%) H1975 # 25-LTC
QUANTITY KIND: Dmax (%)
Record the value in %, omitting the unit from your answer.

The compound CCc1cc(Nc2ncc(Br)c(Nc3ccc4nc(C)c(F)cc4c3P(C)(C)=O)n2)c(OC)cc1N1CCC2(CCN(CC3CCN(c4cc(F)c([C@H]5CCC(=O)NC5=O)c(F)c4)CC3)CC2)CC1 [Example 79] showed Dmax equal to 95

The compound CCc1cc(Nc2ncc(Br)c(Nc3ccc4nc(C)c(F)cc4c3P(C)(C)=O)n2)c(OC)cc1N1CCC2(CCN(CCNc3cc(F)c([C@H]4CCC(=O)NC4=O)c(F)c3)CC2)CC1 (single isomer, unassigned) [Example 43] showed Dmax equal to 90

The compound CCc1cc(Nc2ncc(Br)c(Nc3ccc4nc(C)c(F)cc4c3P(C)(C)=O)n2)c(OC)cc1N1CCC(N2CCN(C3CN(c4cc(F)c([C@H]5CCC(=O)NC5=O)c(F)c4)C3)CC2)CC1 [Example 8] showed Dmax equal to 87

The compound CCc1cc(Nc2ncc(Br)c(Nc3ccc4nc(C)c(F)cc4c3P(C)(C)=O)n2)c(OC)cc1N1CCC2(CCN(CC3CCN(c4ccc5c(c4)CN(C4CCC(=O)NC4=O)C5=O)CC3)CC2)CC1 (centres unmarked) [Example 48] showed Dmax equal to 90

The compound CCc1cc(Nc2ncc(Br)c(Nc3ccc4nc(C)c(F)cc4c3P(C)(C)=O)n2)c(OC)cc1N1CC2(C1)CN(C1CCN(c3cc(F)c([C@H]4CCC(=O)NC4=O)c(F)c3)CC1)C2 [Example 64] showed Dmax equal to 95

====

Biological target: EGFR-L858R/T790M/C797S (Homo sapiens, UniProt P00533, C797S/L858R/T790M)
Construct: expressed in transfected cells; host or cells: H1975-clone #25 (lentiviral over-expression, endogenous EGFR knocked out)
Experiment: EGFR degradation HTRF assay in H1975-clone #25 cells
Format: cell-based
Conditions: NCI-H1975, H1975-clone #25 (L858R/T790M/C797S) cells, 16 h treatment, maximum percentage of inhibition (degradation), read-out: Dmax (%) H1975 # 25-LTC
QUANTITY KIND: Dmax
The reply should read as a number followed by its unit.

Entry CCc1cc(Nc2ncc(Br)c(Nc3ccc4nc(C)c(F)cc4c3P(C)(C)=O)n2)c(OC)cc1N1CCC2(CCN(CC3CCN(c4ccc5c(c4)C(=O)N(C4CCC(=O)NC4=O)C5=O)CC3)CC2)CC1 (centres unmarked) [Example 46] under EGFR-L858R/T790M/C797S (Homo sapiens, UniProt P00533, C797S/L858R/T790M) had Dmax of 89%

Entry CCc1cc(Nc2ncc(Br)c(Nc3ccc4nc(C)c(F)cc4c3P(C)(C)=O)n2)c(OC)cc1N1CCC(N2CCN(C3CN(c4cccc5c4n(C)c(=O)n5C4CCC(=O)NC4=O)C3)CC2)CC1 (centres unmarked) [Example 22] under EGFR-L858R/T790M/C797S (Homo sapiens, UniProt P00533, C797S/L858R/T790M) had Dmax of 83%

Entry CCc1ncc2c(P(C)(C)=O)c(Nc3nc(Nc4cc(C)c(N5CCC6(CCN(CCc7cc(F)c([C@H]8CCC(=O)NC8=O)c(F)c7)CC6)CC5)cc4OC)ncc3Cl)ccc2n1 [Example 42] under EGFR-L858R/T790M/C797S (Homo sapiens, UniProt P00533, C797S/L858R/T790M) had Dmax of 85%

Entry CCc1cc(Nc2ncc(Br)c(Nc3ccc4nc(C)c(F)cc4c3P(C)(C)=O)n2)c(OC)cc1N1CCC2(CCN(C[C@@H]3CCN(c4ccc5c(c4)C(=O)N(C4CCC(=O)NC4=O)C5=O)C3)CC2)CC1 (some centres unmarked) [Example 49] under EGFR-L858R/T790M/C797S (Homo sapiens, UniProt P00533, C797S/L858R/T790M) had Dmax of 89%

Entry CCc1cc(Nc2ncc(Br)c(Nc3ccc4nc(C)c(F)cc4c3P(C)(C)=O)n2)c(OC)cc1N1CCC(N2CC(CN3CCC(c4cc(F)c([C@H]5CCC(=O)NC5=O)c(F)c4)CC3)C2)CC1 [Example 56] under EGFR-L858R/T790M/C797S (Homo sapiens, UniProt P00533, C797S/L858R/T790M) had Dmax of 90%

====

Target: EGFR-L858R/T790M/C797S (Homo sapiens, UniProt P00533, C797S/L858R/T790M)
Construct: expressed in transfected cells; host or cells: H1975-clone #25 (lentiviral over-expression, endogenous EGFR knocked out)
Assay: EGFR degradation HTRF assay in H1975-clone #25 cells
Type: cell-based
Settings: NCI-H1975, H1975-clone #25 (L858R/T790M/C797S) cells, 16 h treatment, maximum percentage of inhibition (degradation), read-out: Dmax (%) H1975 # 25-LTC
QUANTITY KIND: Dmax (%)
Record the value in %, omitting the unit from your answer.

The compound CCc1cc(Nc2ncc(Br)c(Nc3ccc4nc(C)c(F)cc4c3P(C)(C)=O)n2)c(OC)cc1N1CCC2(CCN(CC3CCN(c4cc5c(cc4F)C(=O)N(C4CCC(=O)NC4=O)C5=O)CC3)CC2)CC1 (centres unmarked) [Example 47] showed Dmax equal to 88

The compound CCc1cc(Nc2ncc(Br)c(Nc3ccc4nc(C)c(F)cc4c3P(C)(C)=O)n2)c(OC)cc1N1CCC2(CCN(C(=O)CN3CCC(c4ccc(NC5CCC(=O)NC5=O)cc4)CC3)CC2)CC1 (single isomer, unassigned) [Example 29] showed Dmax equal to 96

The compound CCc1cc(Nc2ncc(Cl)c(Nc3ccc4nc(C)c(F)cc4c3P(C)(C)=O)n2)c(OC)cc1N1CCC(N2CCC(N3CCN(c4cc(F)c([C@H]5CCC(=O)NC5=O)c(F)c4)CC3)CC2)CC1 [Example 12] showed Dmax equal to 92

The compound CCc1cc(Nc2ncc(Br)c(Nc3ccc4nc(C)c(F)cc4c3P(C)(C)=O)n2)c(OC)cc1N1CCC2(CCN(CCN(C)c3cc(F)c([C@H]4CCC(=O)NC4=O)c(F)c3)CC2)CC1 [Example 44] showed Dmax equal to 92

The compound CCc1ncc2c(P(C)(C)=O)c(Nc3nc(Nc4cc(CC)c(N5CCC(N6CC7(CCN(c8cccc9c8n(C)c(=O)n9C8CCC(=O)NC8=O)CC7)C6)CC5)cc4OC)ncc3Br)ccc2n1 (centres unmarked) [Example 31] showed Dmax equal to 86

====

Target: EGFR-L858R/T790M/C797S (Homo sapiens, UniProt P00533, C797S/L858R/T790M)
Construct: expressed in transfected cells; host or cells: H1975-clone #25 (lentiviral over-expression, endogenous EGFR knocked out)
Assay: EGFR degradation HTRF assay in H1975-clone #25 cells
Format: cell-based
Details: NCI-H1975, H1975-clone #25 (L858R/T790M/C797S) cells, 16 h treatment, maximum percentage of inhibition (degradation), read-out: Dmax (%) H1975 # 25-LTC
For each entry below, report its Dmax value.
Record the value in %, omitting the unit from your answer.

Entry CCc1ccc2c(P(C)(C)=O)c(Nc3nc(Nc4cc(CC)c(N5CCC(N6CC(N7CCC(c8cc(F)c([C@H]9CCC(=O)NC9=O)c(F)c8)CC7)C6)CC5)cc4OC)ncc3Br)ccc2n1 [Example 14] under EGFR-L858R/T790M/C797S (Homo sapiens, UniProt P00533, C797S/L858R/T790M) had Dmax of 91

Entry CCc1cc(Nc2ncc(Br)c(Nc3ccc4nc(C)c(F)cc4c3P(C)(C)=O)n2)c(OC)cc1N1CCC(N2CC3(CN(c4cccc5c4n(C)c(=O)n5C4CCC(=O)NC4=O)C3)C2)CC1 (stereo not drawn) [Example 26] under EGFR-L858R/T790M/C797S (Homo sapiens, UniProt P00533, C797S/L858R/T790M) had Dmax of 80

Entry CCc1cc(Nc2ncc(Br)c(Nc3ccc4nc(C)c(F)cc4c3P(C)(C)=O)n2)c(OC)cc1N1CCC(N2CCN(C(=O)C3CN(c4ccc(F)c5c4n(C)c(=O)n5[C@H]4CCC(=O)NC4=O)C3)CC2)CC1 [Example 24] under EGFR-L858R/T790M/C797S (Homo sapiens, UniProt P00533, C797S/L858R/T790M) had Dmax of 88

Entry CCc1ncc2c(P(C)(C)=O)c(Nc3nc(Nc4cc(CC)c(N5CCC(N6CC7(CN(c8cccc9c8n(C)c(=O)n9C8CCC(=O)NC8=O)C7)C6)CC5)cc4OC)ncc3Br)ccc2n1 (stereo not drawn) [Example 25] under EGFR-L858R/T790M/C797S (Homo sapiens, UniProt P00533, C797S/L858R/T790M) had Dmax of 82

Entry CCc1ncc2c(P(C)(C)=O)c(Nc3nc(Nc4cc(CC)c(N5CCC(N6CCN(C7CN(c8cc(F)c([C@H]9CCC(=O)NC9=O)c(F)c8)C7)CC6)CC5)cc4OC)ncc3Br)ccc2n1 (single isomer, unassigned) [Example 7] under EGFR-L858R/T790M/C797S (Homo sapiens, UniProt P00533, C797S/L858R/T790M) had Dmax of 76

Entry CCc1ccc2c(P(C)(C)=O)c(Nc3nc(Nc4cc(CC)c(N5CCC(N6CCN(C7CN(c8cccc9c8n(C)c(=O)n9C8CCC(=O)NC8=O)C7)CC6)CC5)cc4OC)ncc3Br)ccc2n1 (stereo not drawn) [Example 21] under EGFR-L858R/T790M/C797S (Homo sapiens, UniProt P00533, C797S/L858R/T790M) had Dmax of 78

Entry CCc1ncc2c(P(C)(C)=O)c(Nc3nc(Nc4cc(CC)c(N5CCC(N6CCN([C@H]7CCN(c8cc(F)c([C@H]9CCC(=O)NC9=O)c(F)c8)C7)CC6)CC5)cc4OC)ncc3Br)ccc2n1 (single isomer, unassigned) [Example 9] under EGFR-L858R/T790M/C797S (Homo sapiens, UniProt P00533, C797S/L858R/T790M) had Dmax of 86

Entry CCc1ncc2c(P(C)(C)=O)c(Nc3nc(Nc4cc(CC)c(N5CCC6(CCN(CCc7cc(F)c([C@H]8CCC(=O)NC8=O)c(F)c7)CC6)CC5)cc4OC)ncc3Br)ccc2n1 [Example 40] under EGFR-L858R/T790M/C797S (Homo sapiens, UniProt P00533, C797S/L858R/T790M) had Dmax of 86

Entry CCc1cc(Nc2ncc(Br)c(Nc3ccc4nc(C)c(F)cc4c3P(C)(C)=O)n2)c(OC)cc1N1CCC2(CC1)CN(C1CCN(c3cc(F)c([C@H]4CCC(=O)NC4=O)c(F)c3)CC1)C2 [Example 62] under EGFR-L858R/T790M/C797S (Homo sapiens, UniProt P00533, C797S/L858R/T790M) had Dmax of 95

Entry CCc1cc(Nc2ncc(Br)c(Nc3ccc4nc(C)c(F)cc4c3P(C)(C)=O)n2)c(OC)cc1N1CCC2(CC1)CCN(C1CN(c3cc(F)c([C@H]4CCC(=O)NC4=O)c(F)c3)C1)CC2 [Example 38] under EGFR-L858R/T790M/C797S (Homo sapiens, UniProt P00533, C797S/L858R/T790M) had Dmax of 89

Entry COc1cc(N2CCC3(CC2)CCN(C2CCN(c4cc(F)c([C@H]5CCC(=O)NC5=O)c(F)c4)CC2)CC3)c(C)cc1Nc1ncc(Br)c(Nc2ccc3nc(C)ncc3c2P(C)(C)=O)n1 [Example 66] under EGFR-L858R/T790M/C797S (Homo sapiens, UniProt P00533, C797S/L858R/T790M) had Dmax of 93

Entry CCc1cc(Nc2ncc(Br)c(Nc3ccc4nc(C)c(F)cc4c3P(C)(C)=O)n2)c(OC)cc1N1CCC2(CC1)CCN(C1CCN(c3cccc4c3n(C)c(=O)n4C3CCC(=O)NC3=O)CC1)CC2 (stereo not drawn) [Example 51] under EGFR-L858R/T790M/C797S (Homo sapiens, UniProt P00533, C797S/L858R/T790M) had Dmax of 89

Entry CCc1ccc2c(P(C)(C)=O)c(Nc3nc(Nc4cc(CC)c(N5CCC(N6CCN(C7CCN(c8cc(F)c([C@H]9CCC(=O)NC9=O)c(F)c8)CC7)CC6)CC5)cc4OC)ncc3Br)ccc2n1 (single isomer, unassigned) [Example 10] under EGFR-L858R/T790M/C797S (Homo sapiens, UniProt P00533, C797S/L858R/T790M) had Dmax of 91

Entry CCc1cc(Nc2ncc(Br)c(Nc3ccc4nc(C)c(F)cc4c3P(C)(C)=O)n2)c(OC)cc1N1CCC2(CC1)CCN(C1CCN(c3cc(F)c([C@H]4CCC(=O)NC4=O)c(F)c3)CC1)CC2 [Example 1] under EGFR-L858R/T790M/C797S (Homo sapiens, UniProt P00533, C797S/L858R/T790M) had Dmax of 92

Entry CCc1cc(Nc2ncc(Br)c(Nc3ccc4nc(C)c(F)cc4c3P(C)(C)=O)n2)c(OC)cc1N1CCC(N2CC(N3CCN(c4cc(F)c([C@H]5CCC(=O)NC5=O)c(F)c4)CC3)C2)CC1 (single isomer, unassigned) [Example 16] under EGFR-L858R/T790M/C797S (Homo sapiens, UniProt P00533, C797S/L858R/T790M) had Dmax of 85

Entry CCOc1cc(N2CCC(N3CCN(C4CCN(c5cc(F)c([C@H]6CCC(=O)NC6=O)c(F)c5)CC4)CC3)CC2)c(CC)cc1Nc1ncc(Cl)c(Nc2ccc3nc(C)c(F)cc3c2P(C)(C)=O)n1 [Example 54] under EGFR-L858R/T790M/C797S (Homo sapiens, UniProt P00533, C797S/L858R/T790M) had Dmax of 88

Entry CCc1ncc2c(P(C)(C)=O)c(Nc3nc(Nc4cc(CC)c(N5CCC(N6CC7(CCN(c8cc(F)c([C@H]9CCC(=O)NC9=O)c(F)c8)CC7)C6)CC5)cc4OC)ncc3Br)ccc2n1 (single isomer, unassigned) [Example 20] under EGFR-L858R/T790M/C797S (Homo sapiens, UniProt P00533, C797S/L858R/T790M) had Dmax of 92

Entry CCc1ccc2c(P(C)(C)=O)c(Nc3nc(Nc4cc(CC)c(N5CCC(N6CC7(CN(c8cc(F)c([C@H]9CCC(=O)NC9=O)c(F)c8)C7)C6)CC5)cc4OC)ncc3Br)ccc2n1 (single isomer, unassigned) [Example 27] under EGFR-L858R/T790M/C797S (Homo sapiens, UniProt P00533, C797S/L858R/T790M) had Dmax of 92
